I'd appreciate it if you could supply tissue uptake at 4 h values for the items below.
- method summary: Biodistribution studies in HEK-uPAR xenograft-bearing nude mice
- condition summary: female, CD1/nude, mouse, spleen, 5 MBq (0.5 nmol), total radioactivity, 4 h p.i.; 5 MBq, 0.5 nmol; decay-corrected; average ± SD, n=3 animals
Kindly provide the numeric value in %ID/g only, without the unit symbol.

Please report the recorded tissue uptake at 4 h for CC(C)C[C@H](NC(=O)[C@H](Cc1ccc(O)cc1)NC(=O)[C@@H](CCCNC(=N)N)NC(=O)[C@@H](CO)NC(=O)[C@H](Cc1ccccc1)NC(=O)[C@H](CC1CCCCC1)NC(=O)[C@H](CC(=O)O)NC(=O)[C@H](CCCCNC(=O)CCCc1ccc(I)cc1)NC(=O)CN1CCN(CC(=O)O)CCN(CC(=O)O)CCN(CC(=O)O)CC1)C(=O)N[C@@H](Cc1c[nH]c2ccccc12)C(=O)N[C@@H](CO)C(N)=O [[^177Lu]Lu-uPAR-01, metal not drawn] . 2.7

Note, next up: CC(C)C[C@H](NC(=O)[C@H](Cc1ccc(O)cc1)NC(=O)[C@@H](CCCNC(=N)N)NC(=O)[C@@H](CO)NC(=O)[C@H](Cc1ccccc1)NC(=O)[C@H](CC1CCCCC1)NC(=O)[C@H](CC(=O)O)NC(=O)[C@H](CCCCNC(=O)CCCc1ccc(I)cc1)NC(=O)[C@@H](N)CCCCNC(=O)CN1CCN(CC(=O)O)CCN(CC(=O)O)CCN(CC(=O)O)CC1)C(=O)N[C@@H](Cc1c[nH]c2ccccc12)C(=O)N[C@@H](CO)C(N)=O [[^177Lu]Lu-uPAR-04, metal not drawn] 1.9

Lookup CC(C)C[C@H](NC(=O)[C@H](Cc1ccc(O)cc1)NC(=O)[C@@H](CCCNC(=N)N)NC(=O)[C@@H](CO)NC(=O)[C@H](Cc1ccccc1)NC(=O)[C@H](CC1CCCCC1)NC(=O)[C@H](CC(=O)O)NC(=O)CCOCCOCCOCCOCCNC(=O)[C@H](CCCCNC(=O)CCCc1ccc(I)cc1)NC(=O)CN1CCN(CC(=O)O)CCN(CC(=O)O)CCN(CC(=O)O)CC1)C(=O)N[C@@H](Cc1c[nH]c2ccccc12)C(=O)N[C@@H](CO)C(N)=O [[^177Lu]Lu-uPAR-05, metal not drawn] 1.5

Please answer likewise for CC(C)C[C@H](NC(=O)[C@H](Cc1ccc(O)cc1)NC(=O)[C@@H](CCCNC(=N)N)NC(=O)[C@@H](CO)NC(=O)[C@H](Cc1ccccc1)NC(=O)[C@H](CC1CCCCC1)NC(=O)[C@H](CC(=O)O)NC(=O)CN1CCN(CC(=O)O)CCN(CC(=O)O)CCN(CC(=O)O)CC1)C(=O)N[C@@H](Cc1c[nH]c2ccccc12)C(=O)N[C@@H](CO)C(N)=O [[^177Lu]Lu-DOTA-AE105, metal not drawn, reference compound] 0.18

----------
- method summary: in vivo
- condition summary: female, CD1/nude, mouse, 5 MBq (0.5 nmol), total radioactivity, Blood
parameter: tissue uptake at 4 h
Express the reported value numerically, then name its unit.

// tissue uptake at 4 h lookup, key: CC(C)C[C@H](NC(=O)[C@H](Cc1ccc(O)cc1)NC(=O)[C@@H](CCCNC(=N)N)NC(=O)[C@@H](CO)NC(=O)[C@H](Cc1ccccc1)NC(=O)[C@H](CC1CCCCC1)NC(=O)[C@H](CC(=O)O)NC(=O)[C@H](CCCCNC(=O)CCOCCOCCOCCOCCNC(=O)c1ccc(CNC(=O)CCCc2ccc(I)cc2)cc1)NC(=O)CN1CCN(CC(=O)O)CCN(CC(=O)O)CCN(CC(=O)O)CC1)C(=O)N[C@@H](Cc1c[nH]c2ccccc12)C(=O)N[C@@H](CO)C(N)=O [[^177Lu]Lu-uPAR-03, metal not drawn] 15 %ID/g

What about CC(C)C[C@H](NC(=O)[C@H](Cc1ccc(O)cc1)NC(=O)[C@@H](CCCNC(=N)N)NC(=O)[C@@H](CO)NC(=O)[C@H](Cc1ccccc1)NC(=O)[C@H](CC1CCCCC1)NC(=O)[C@H](CC(=O)O)NC(=O)[C@H](CCCCNC(=O)CCOCCOCCOCCOCCNC(=O)CCCc1ccc(I)cc1)NC(=O)CN1CCN(CC(=O)O)CCN(CC(=O)O)CCN(CC(=O)O)CC1)C(=O)N[C@@H](Cc1c[nH]c2ccccc12)C(=O)N[C@@H](CO)C(N)=O [[^177Lu]Lu-uPAR-02, metal not drawn] ? 16 %ID/g
